- system.name: SOS1:KRAS (G12C) interaction (Homo sapiens (Human), UniProt Q07889)
- Sequence (Q07889 564-1049, stated change not applied): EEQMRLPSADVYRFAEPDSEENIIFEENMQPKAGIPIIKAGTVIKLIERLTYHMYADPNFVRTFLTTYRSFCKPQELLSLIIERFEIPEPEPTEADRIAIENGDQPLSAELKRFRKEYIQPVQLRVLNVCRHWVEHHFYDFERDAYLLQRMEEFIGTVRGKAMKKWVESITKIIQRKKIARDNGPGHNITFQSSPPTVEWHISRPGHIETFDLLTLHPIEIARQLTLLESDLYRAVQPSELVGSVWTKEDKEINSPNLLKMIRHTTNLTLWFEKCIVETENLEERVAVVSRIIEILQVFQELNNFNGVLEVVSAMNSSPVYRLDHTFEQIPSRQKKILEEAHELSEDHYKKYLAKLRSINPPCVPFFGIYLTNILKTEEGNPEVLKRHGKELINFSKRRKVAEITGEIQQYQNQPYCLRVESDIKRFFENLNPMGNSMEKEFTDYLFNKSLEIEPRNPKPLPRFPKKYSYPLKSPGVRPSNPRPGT
- experimental.details: SOS1 KRas(G12C) FRET Assay
- experimental.setup: 0.5 nM His10-SOS1 (res. 564-1049), 2.5 nM GST-KRAS G12C (res. 1-169), 2 hrs at RT
- Description: Inhibition of the SOS 1:KRAS interaction was measured using purified GST-tagged KRAS (res. 1-169, G12C, purified based on Hillig, et al., Proc Natl Acad Sci USA (2019); 116(7):2551-2560) and recombinant His10-SOS1 (res. 564-1049; purified based on Hillig, et al.). […] Plates were incubated at RT for 2 hrs before the FRET signal was measured using Envision at emission 665 nm and 615 nm. […]
Below, each entry is listed with its recorded log10 of IC50.
Please interpret these as log10 of IC50 where IC50 is in nM.

IN: For the compound C[C@@H](NC(=O)c1cn([C@@H]2CCC2(F)F)c(=O)cc1N[C@@H]1[C@@H]2CC[C@H]1CN(C)C2)c1cccc(C(F)F)c1F [Example 212] , give its reported log10 of IC50.
OUT: 1.58

###

List of IC50 values.
- system.name: SOS1:KRAS (G12C) interaction (Homo sapiens (Human))
- experimental.details: SOS1 KRas(G12C) FRET Assay
- experimental.setup: 0.5 nM His10-SOS1 (res. 564-1049), 2.5 nM GST-KRAS G12C (res. 1-169), 2 hrs at RT
// return numeric value only (unit: nM, not printed)

Worked examples, 3 compounds total:
compound: C[C@@H](NC(=O)c1cn(C23CC(C2)C3)c(=O)cc1N[C@H]1[C@@H]2CN(C)C[C@@H]21)c1cccc(OC(F)F)c1Cl
IC50 (nM): 113
//
compound: [2H]C([2H])([2H])N1C[C@@H]2[C@H](C1)[C@H]2Nc1cc(=O)n(C23CC(C2)C3)cc1C(=O)N[C@H](C)c1cccc(C(F)F)c1F
IC50 (nM): 13.9
//
compound: C[C@@H](NC(=O)c1cn([C@]23COC[C@H]2C3)c(=O)cc1N[C@H]1[C@@H]2CN(C)C[C@@H]21)c1cccc(C(F)F)c1F
IC50 (nM): 9.9

IN: Consider the compound `C[C@@H](NC(=O)c1cn([C@@]2(C)CCN(C(=O)C3(F)CC3)C2)c(=O)cc1NC1CCN(C)CC1)c1cccc(C(F)F)c1F` . State its measured IC50.
OUT: 32.8

IN: // Input: `C[C@@H](NC(=O)c1cn(C2(C(F)F)CC2)c(=O)cc1NC[C@@H]1CC2CCN1CC2)c1cccc(C(F)F)c1F` . Output its IC50 only.
OUT: 26.1

IN: Determine its reported IC50: `C[C@@H](NC(=O)c1cn([C@]2(C)CCN(C(=O)C3(F)CC3)C2)c(=O)cc1NC1CCN(C)CC1)c1cccc(C(F)F)c1F`
OUT: 1.21

IN: Give IC50 for the following compound: `Cc1c([C@@H](C)NC(=O)c2cn(C3(C(F)F)CC3)c(=O)cc2NC2CCN(C)CC2)cccc1C(F)(F)F`
OUT: 20.3

IN: Quick one: give measured IC50 for `C[C@@H](NC(=O)c1cn(C23CC(C2)C3)c(=O)cc1N[C@H]1C[C@@H](N(C)C)C1)c1cccc(C(F)F)c1F`
OUT: 23.2

IN: Supply reported IC50 belonging to this compound: C[C@@H](NC(=O)c1cn([C@H]2CCC2(F)F)c(=O)cc1N[C@H]1[C@@H]2CN(C)C[C@@H]21)c1cccc(C(F)F)c1F (single isomer, unassigned)
OUT: 45.4

###

- system.name: SOS1:KRAS (G12C) interaction (Homo sapiens (Human), UniProt Q07889)
- experimental.details: SOS1 KRas(G12C) FRET Assay
- experimental.setup: 0.5 nM His10-SOS1 (res. 564-1049), 2.5 nM GST-KRAS G12C (res. 1-169), 2 hrs at RT
Consider the following compounds and their measured IC50 readings.
Respond numerically; units are nM and should not be typed.

Here's what some known entries look like.
compound: C[C@@H](NC(=O)c1cn(C2(C(F)F)CC2)c(=O)cc1N[C@@]12C[C@@H]1CN(C)C2)c1cccc(C(F)F)c1F [Example 228]
measurement.units: nM
IC50: 64.3
--
compound: Cc1c([C@@H](C)NC(=O)c2cn(C3CCOCC3)c(=O)cc2NCC2(F)CN(C)C2)cccc1C(F)(F)F [Example 30]
measurement.units: nM
IC50: 36.3
--
compound: CC(=O)N1CC[C@](C)(n2cc(C(=O)N[C@H](C)c3cccc(C(F)F)c3F)c(NC3CCN(C)CC3)cc2=O)C1 (single isomer, unassigned) [Example 265]
measurement.units: nM
IC50: 27.8
--
compound: C[C@@H](NC(=O)c1cn(C2(C(F)(F)F)CC2)c(=O)cc1N[C@H]1[C@@H]2CN(C)C[C@@H]21)c1cccc(C(F)F)c1F [Example 119]
measurement.units: nM
IC50: 36.6
--
compound: C[C@@H](NC(=O)c1cn([C@@H]2CC23CC3)c(=O)cc1N[C@H]1[C@@H]2CN(C)C[C@@H]21)c1cccc(C(F)F)c1F (single isomer, unassigned) [Example 116]
measurement.units: nM
IC50: 26.7
--
compound: C[C@@H](NC(=O)c1cn([C@@H]2CCC2(F)F)c(=O)cc1N[C@H]1[C@@H]2CN(C)C[C@@H]21)c1cccc(C(F)(F)F)c1F (single isomer, unassigned) [Example 145]
measurement.units: nM
IC50: 35.2
--
compound: C[C@@H](NC(=O)c1cn(C2(C(F)F)CC2)c(=O)cc1N[C@@H]1[C@@H]2CC[C@H]1CNC2)c1cccc(C(F)F)c1F (single isomer, unassigned) [Example 281]
measurement.units: nM
IC50: 18.4
--
compound: C[C@@H](NC(=O)c1cn(C2(C(F)F)CC2)c(=O)cc1N[C@@H]1[C@@H]2CN(C)C[C@@H]21)c1cccc(C(F)F)c1F [Example 56]
measurement.units: nM
IC50: 34.2
--
compound: C[C@@H](NC(=O)c1cn(C23COC(C(F)F)(C2)C3)c(=O)cc1NC1[C@H]2CN(C)C[C@@H]12)c1cccc(C(F)F)c1F (some centres unmarked) [Example 263]
measurement.units: nM
IC50: 14.9
--
compound: Cc1c([C@@H](C)NC(=O)c2cn(C3CCOCC3)c(=O)cc2N[C@@H]2CC[C@]23CCCN(C)C3)cccc1C(F)(F)F (single isomer, unassigned) [Example 297]
measurement.units: nM
IC50: 33.4

Please examine the following record next.
IN: State its IC50: C[C@@H](NC(=O)c1cn([C@@H]2CC23CC3)c(=O)cc1N[C@H]1[C@@H]2CN(C)C[C@@H]21)c1cccc(C(C)(F)F)c1F (single isomer, unassigned) [Example 254]
OUT: 13

###

The following are reported Kd results, target or system human SOS1 (Homo sapiens (Human)).
Expressed in nM, but write only the number.

molecule: C[C@@H](NC(=O)c1cn(C2(C(F)F)CC2)c(=O)cc1N[C@H]1[C@@H]2CN(C)C[C@@H]21)c1cccc(C(F)(F)F)c1F
measurement.units: nM
Kd: 23

IN: Supply recorded Kd for `C[C@@H](NC(=O)c1cn([C@@H]2CCC2(F)F)c(=O)cc1NCC1(F)CN(C)C1)c1cccc(C(F)F)c1F` here.
OUT: 73

IN: Name the recorded Kd of the molecule listed here: `C[C@@H](NC(=O)c1cn(C2(C(F)F)CC2)c(=O)cc1N[C@H](C)c1cncn1C)c1cccc(C(F)F)c1F`
OUT: 96

IN: Item `CO[C@@H]1CN(C)CC[C@@H]1Nc1cc(=O)n(C2(C(F)F)CC2)cc1C(=O)N[C@H](C)c1cccc(C(F)F)c1F` : provide Kd
OUT: 23

IN: Respond only with Kd recorded for `CNc1cc(=O)n(C2CCOCC2)cc1C(=O)N[C@H](C)c1cccc(C(F)(F)F)c1C`
OUT: 245

IN: Give recorded Kd. `Cc1c([C@@H](C)NC(=O)c2cn(C3CCOCC3)c(=O)c(C#N)c2NC2CCN(C)CC2)cccc1C(F)(F)F`
OUT: 10.4

IN: Give recorded Kd. `C[C@@H](NC(=O)c1cn(C2(C(F)F)CC2)c(=O)cc1N[C@H]1CN2CCC1CC2)c1cccc(C(F)F)c1F`
OUT: 20

IN: Identify measured Kd associated with `Cc1c([C@@H](C)NC(=O)c2cn(C3CCOCC3)c(=O)cc2NC2CC3(C2)CN(C)C3)cccc1C(F)(F)F`
OUT: 17

IN: Provide measured Kd value, entry: C[C@@H]1[C@@H](n2cc(C(=O)N[C@H](C)c3cccc(C(F)F)c3F)c(N[C@H]3[C@@H]4CN(C)C[C@@H]43)cc2=O)C1(F)F (single isomer, unassigned)
OUT: 2

IN: Please report Kd for the following molecule: `Cc1c([C@@H](C)NC(=O)c2cn(C3(C(F)F)CC3)c(=O)cc2NC2CCN(C)CC2)cccc1C(F)(F)F`
OUT: 8

IN: Assign Kd to the following record: `C[C@@H](NC(=O)c1cn(C2CC2)c(=O)cc1N[C@H]1[C@@H]2CN(C)C[C@@H]21)c1cccc(C(F)F)c1F`
OUT: 11

IN: Please list Kd recorded for the molecule `C[C@@H](NC(=O)c1cn(C2(C(F)F)CC2)c(=O)cc1N[C@@H]1CN2CCC1CC2)c1cccc(C(F)F)c1F`
OUT: 9

IN: Recall and state the measured Kd for `Cc1c([C@@H](C)NC(=O)c2cn(C3CCOCC3)c(=O)cc2NCc2cncn2C)cccc1C(F)(F)F` .
OUT: 74

IN: Assign Kd to the following record: `C[C@@H](NC(=O)c1cn(C2(C(F)F)CC2)c(=O)cc1NC[C@H]1CC2CCN1CC2)c1cccc(C(F)F)c1F`
OUT: 29
